pIC50 for Metabotropic glutamate receptor 5 (Rattus norvegicus, UniProt P31424) - collated from the literature.
pIC50: −log10 of the molar value.

{"smilesData": "Fc1cc(F)c2nc(CCC#Cc3ccccn3)cn2c1", "testSystem": "Metabotropic glutamate receptor 5 (Rattus norvegicus, UniProt P31424)", "relationalOperator": ">", "pIC50": 7.30}
{"smilesData": "FCc1cccc(C#CCCc2cnc3ccccc3n2)n1", "testSystem": "Metabotropic glutamate receptor 5 (Rattus norvegicus, UniProt P31424)", "relationalOperator": ">", "pIC50": 7.30}
{"smilesData": "O=C(Nc1ccc(F)c(C(F)F)n1)c1cc(Cl)cc(Oc2cncnc2)c1", "testSystem": "Metabotropic glutamate receptor 5 (Rattus norvegicus, UniProt P31424)", "relationalOperator": "=", "pIC50": 6.11}
{"smilesData": "Cc1cccc(C#CCCc2ccc3ccccc3n2)n1", "testSystem": "Metabotropic glutamate receptor 5 (Rattus norvegicus, UniProt P31424)", "relationalOperator": ">", "pIC50": 7.30}
{"smilesData": "Fc1ccc(C#CCCc2cn3ccccc3n2)nc1", "testSystem": "Metabotropic glutamate receptor 5 (Rattus norvegicus, UniProt P31424)", "relationalOperator": ">", "pIC50": 5.00}
{"smilesData": "Cc1nc(NC(=O)c2cc(Cl)cc(Oc3cncnc3)c2)sc1Br", "testSystem": "Metabotropic glutamate receptor 5 (Rattus norvegicus, UniProt P31424)", "relationalOperator": "=", "pIC50": 5.43}
{"smilesData": "C(#Cc1ccc2ccccc2n1)CCc1ccccc1", "testSystem": "Metabotropic glutamate receptor 5 (Rattus norvegicus, UniProt P31424)", "relationalOperator": ">", "pIC50": 5.00}
{"smilesData": "Clc1cccc(C#CCCn2nc3ccccc3n2)n1", "testSystem": "Metabotropic glutamate receptor 5 (Rattus norvegicus, UniProt P31424)", "relationalOperator": ">", "pIC50": 5.00}
{"smilesData": "O=C(Nc1ccc(F)cn1)c1cccc(Oc2cccnc2)c1", "testSystem": "Metabotropic glutamate receptor 5 (Rattus norvegicus, UniProt P31424)", "relationalOperator": "=", "pIC50": 5.13}
{"smilesData": "Cc1cccc(C(=O)Nc2cccc(Oc3cncnc3)n2)c1", "testSystem": "Metabotropic glutamate receptor 5 (Rattus norvegicus, UniProt P31424)", "relationalOperator": "=", "pIC50": 7.06}

###

pIC50 for Metabotropic glutamate receptor 5 (Rattus norvegicus, UniProt P31424) - collated from the literature.
pIC50: −log10 of the molar value.

{"smilesData": "Oc1cccc2oc(CCC#Cc3ccccn3)nc12", "pIC50": "> 5.00"}
{"smilesData": "Cn1ccc(C#CCCc2nc3ccccc3s2)n1", "pIC50": "> 5.00"}
{"smilesData": "O=C1c2ccccc2C(=O)N1CCC#Cc1ccccn1", "pIC50": "> 5.00"}
{"smilesData": "COc1cccc(Cc2noc(CCC#Cc3ccccn3)n2)c1", "pIC50": "> 5.00"}
{"smilesData": "O=C(Nc1cncc(Oc2cncnc2)c1)c1cccc(F)c1", "pIC50": "< 5.00"}
{"smilesData": "Cc1ccc(Cl)cc1-c1noc(CCC#Cc2ccccn2)n1", "pIC50": "> 5.00"}
{"smilesData": "Fc1ccc2nc(CCC#Cc3ccccn3)cn2c1", "pIC50": "> 5.00"}
{"smilesData": "Cc1cccc2sc(CCC#Cc3ccccn3)nc12", "pIC50": "> 7.30"}
{"smilesData": "O=c1c2ccccc2ccn1CCC#Cc1ccccn1", "pIC50": "> 6.30"}
{"smilesData": "FCc1cccc(C#CCCc2ccc3ccccc3n2)n1", "pIC50": "> 7.30"}
{"smilesData": "CN(c1cncnc1)c1cc(F)cc(C(=O)Nc2cc(Cl)ccn2)c1", "pIC50": 6.97}
{"smilesData": "Cc1noc(C)c1S(=O)(=O)N(C)CCC#Cc1ccccn1", "pIC50": "> 5.00"}
{"smilesData": "Cc1nc(C#CCCn2nc3ccccc3n2)cs1", "pIC50": "> 7.30"}
{"smilesData": "Cc1cccc(C(=O)Nc2cncc(Oc3cccnc3)n2)c1", "pIC50": 6.78}
{"smilesData": "Cc1cccc(C(=O)Nc2cncc(Oc3cccnc3)n2)n1", "pIC50": "< 4.52"}
{"smilesData": "C(#Cc1ccccn1)CCc1cn2c(-c3ccccc3)cccc2n1", "pIC50": "> 7.30"}
{"smilesData": "Cc1cccc(C#CCCc2nc3ccccc3s2)n1", "pIC50": "> 7.30"}
{"smilesData": "CN(c1cncnc1)c1cc(Cl)cc(C(=O)Nc2cc(Cl)ccn2)c1", "pIC50": 6.58}
{"smilesData": "Clc1cccn2cc(CCC#Cc3ccccn3)nc12", "pIC50": "> 7.30"}
{"smilesData": "Cc1cncc(NC(=O)c2cc(Cl)cc(N(C)c3cncnc3)c2)c1", "pIC50": "< 5.00"}
{"smilesData": "FC(F)c1cccc(C#CCCn2nc3ccccc3n2)n1", "pIC50": "> 5.00"}
{"smilesData": "Fc1ccc(C#CCCC#Cc2ccccn2)cc1", "pIC50": "> 5.00"}
{"smilesData": "O=C(Nc1ccnc(Oc2cccnc2)c1)c1cccc(Cl)c1", "pIC50": 5.95}
{"smilesData": "O=c1c2ccccc2cnn1CCCCC#Cc1ccccn1", "pIC50": "> 5.00"}
{"smilesData": "O=C(CCC#Cc1ccccn1)Nc1cccc(F)c1", "pIC50": "> 5.00"}
{"smilesData": "Cc1cccc(C(=O)Nc2cccc(Oc3ccc(C(F)(F)F)nc3)n2)n1", "pIC50": "< 4.52"}
{"smilesData": "COc1cccc(NC(=O)c2cc(F)cc(Oc3cncnc3)c2)n1", "pIC50": 5.97}
{"smilesData": "Clc1nccc(C#CCCc2nc3ccccc3o2)n1", "pIC50": "> 5.00"}
{"smilesData": "C(#Cc1ccccn1)CCn1nc2ccccc2n1", "pIC50": "> 6.30"}
{"smilesData": "FCc1nc(C#CCCc2cn3cc(F)ccc3n2)cs1", "pIC50": "> 7.30"}
{"smilesData": "N#Cc1csc(NC(=O)c2cccc(Oc3cccnc3)c2)n1", "pIC50": 5.44}
{"smilesData": "Cc1cccc(C(=O)Nc2cncc(Oc3ccc(C)nc3)n2)c1", "pIC50": "< 5.00"}
{"smilesData": "Cc1cccc2nn(CCC#Cc3cccc(CF)n3)nc12", "pIC50": "> 7.30"}
{"smilesData": "Fc1ccc(-c2cnn(CCC#Cc3ccccn3)c2)cc1", "pIC50": "> 5.00"}
{"smilesData": "Cc1csc(NC(=O)c2cccc(Oc3cncnc3)c2)n1", "pIC50": 7.19}
{"smilesData": "CN(c1cncnc1)c1cc(Cl)cc(C(=O)Nc2ccc(Cl)cn2)c1", "pIC50": 6.03}
{"smilesData": "CN(CCC#Cc1ccccn1)C(=O)c1ccccc1C(F)(F)F", "pIC50": "> 5.00"}
{"smilesData": "FCc1cccc(C#CCCc2cn3cccc(Cl)c3n2)n1", "pIC50": "> 7.30"}
{"smilesData": "O=C1c2ccccc2CN1CCC#Cc1ccccn1", "pIC50": "> 5.00"}
{"smilesData": "CN(c1cncnc1)c1cc(F)cc(C(=O)Nc2ccc(Cl)cn2)c1", "pIC50": "< 4.52"}
{"smilesData": "FCc1cccc(C#CCCn2cc3ccc(F)cc3n2)n1", "pIC50": "> 7.30"}
{"smilesData": "C(#Cc1nc2ccccc2o1)CCc1ccccc1", "pIC50": "> 6.30"}
{"smilesData": "CN(c1cccnc1)c1cc(F)cc(C(=O)Nc2nc(C#N)cs2)c1", "pIC50": 5.66}
{"smilesData": "N#Cc1cccc(C(=O)Nc2cncc(Oc3cccnc3)n2)c1", "pIC50": 6.34}
